Biological target: T1, rat hypothalamic Y5 receptor (rat)
T1 chain: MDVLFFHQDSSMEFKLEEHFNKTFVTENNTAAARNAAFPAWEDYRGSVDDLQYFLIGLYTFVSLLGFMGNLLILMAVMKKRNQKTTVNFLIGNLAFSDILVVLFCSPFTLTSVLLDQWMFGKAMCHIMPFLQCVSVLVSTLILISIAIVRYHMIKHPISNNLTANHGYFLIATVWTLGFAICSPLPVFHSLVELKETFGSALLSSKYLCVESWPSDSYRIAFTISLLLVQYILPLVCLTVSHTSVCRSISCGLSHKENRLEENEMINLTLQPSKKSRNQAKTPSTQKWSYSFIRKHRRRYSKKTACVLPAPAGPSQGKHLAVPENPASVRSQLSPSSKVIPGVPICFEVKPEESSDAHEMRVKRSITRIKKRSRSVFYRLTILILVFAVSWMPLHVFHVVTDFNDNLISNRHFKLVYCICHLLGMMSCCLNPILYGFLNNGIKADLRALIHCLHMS
Assay: 125I-PYY displacement, COS-7 membranes
pKi: −log10 of the molar value.
OUTCOME_MEASURE: pKi

a = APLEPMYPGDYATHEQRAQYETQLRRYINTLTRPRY [rat PP]
b = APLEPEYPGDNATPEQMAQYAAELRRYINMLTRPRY [bovine PP]
c = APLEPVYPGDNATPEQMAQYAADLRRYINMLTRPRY [human PP]
**Query** // rank above by pKi: first = highest number List the labels, following the order given in the request.
**Result** c, b, a
